system_name: human oxytocin receptor (Homo sapiens)
Construct: host or cells: CHO cells, stably transfected (pcDNA3.1 vector)
method_summary: Oxytocin binding in CHO cell membranes expressing human oxytocin receptors ([3H]oxytocin radioligand binding)
study_conditions: value in parentheses, read-out: OT (IC50)
pIC50: −log10 of the molar value.
The threshold is inclusive: pIC50 of exactly 8 counts as label 1; values below receive label 0.

Check the entry COc1cccc(-c2ccc(C(=O)N3Cc4ccc(C(=O)N(C)Cc5cccnc5)n4Cc4ccccc43)cc2C)c1 : does pIC50 equal or exceed 8?
label 1

Please give the result for Cc1cc(C(=O)N2Cc3ccc(C(=O)N(C)Cc4cccnc4)n3Cc3ccccc32)ccc1-c1ccccc1C(F)(F)F too.
label 1

Please give the result for Cc1cc(C(=O)N2Cc3ccc(C(=O)N4CCN(Cc5ccc[n+]([O-])c5C)CC4)n3Cc3ccccc32)ccc1-c1ccccc1C(F)(F)F too.
label 0

Please give the result for COc1cc(C(=O)N2Cc3ccc(C(=O)N(C)Cc4cccnc4)n3Cc3ccccc32)ccc1-c1ccccc1C(F)(F)F too.
label 1

---

Quick record: pIC50, human vasopressin V2 receptor subtype (Homo sapiens).
// pIC50: -log10(molar conc.)

# get_value(readout='pIC50', item= COc1cccc(-c2ccc(C(=O)N3Cc4ccc(C(=O)N(C)CCc5ccccn5)n4Cc4ccccc43)cc2C)c1 [Example 62] )
5.83

Please give the result for Cc1cc(C(=O)N2Cc3ccc(C(=O)N4CCN(Cc5ccc[n+]([O-])c5)CC4)n3Cc3ccccc32)ccc1-c1ccccc1C(F)(F)F [Example 2] too.
5.85

Please give the result for COc1cc(C(=O)N2Cc3ccc(C(=O)N(C)Cc4ccc[n+]([O-])c4)n3Cc3ccccc32)ccc1-c1ccccc1C(F)(F)F [Example 8] too.
6.63

Please give the result for COc1cc(-c2ccccc2C)c(Cl)cc1C(=O)N1Cc2ccc(C(=O)N(C)CCc3ccccn3)n2Cc2ccccc21 [Example 63] too.
6.15

Please give the result for COc1cc(-c2ccccc2Cl)c(Cl)cc1C(=O)N1Cc2ccc(C(=O)N(C)Cc3cccnc3)n2Cc2ccccc21 [Example 6] too.
6.51

---

system_name: human vasopressin V2 receptor subtype (Homo sapiens)
Construct: host or cells: CHO cells, stably transfected (pZeoSV vector)
Sequence (P30518 whole entry): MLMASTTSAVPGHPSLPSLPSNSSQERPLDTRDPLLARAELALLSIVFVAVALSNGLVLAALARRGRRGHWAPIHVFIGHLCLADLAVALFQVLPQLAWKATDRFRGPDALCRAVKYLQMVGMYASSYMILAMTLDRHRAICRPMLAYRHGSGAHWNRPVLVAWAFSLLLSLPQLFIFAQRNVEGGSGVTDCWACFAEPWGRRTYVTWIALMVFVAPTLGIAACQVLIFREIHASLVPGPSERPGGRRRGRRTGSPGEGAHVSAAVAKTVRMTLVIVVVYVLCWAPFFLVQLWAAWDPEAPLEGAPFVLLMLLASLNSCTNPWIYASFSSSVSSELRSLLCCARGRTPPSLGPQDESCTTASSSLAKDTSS
method_summary: Vasopressin binding in CHO cell membranes expressing human vasopressin V2 subtype receptors ([3H]arginine vasopressin radioligand binding)
study_conditions: 100 nM
For each of the compounds below, state its inhibition at 0.1 µM.
Please give a number only; it is taken to be in %.

# get_value(readout='inhibition at 0.1 µM', item= COc1cccc(-c2ccc(C(=O)N3Cc4ccc(C(=O)NCCc5ccccn5)n4Cc4ccccc43)cc2C)c1 )
16

Please give the result for COc1cccc(-c2ccc(C(=O)N3Cc4ccc(C(=O)NCc5ccccn5)n4Cc4ccccc43)cc2OC)c1 too.
21

Please give the result for COc1cccc(-c2cc(OC)c(C(=O)N3Cc4ccc(C(=O)NCCc5ccccn5)n4Cc4ccccc43)cc2Cl)c1 too.
11

Please give the result for COc1ccccc1-c1ccc(C(=O)N2Cc3ccc(C(=O)NCCc4ccccn4)n3Cc3ccccc32)cc1OC too.
22

Please give the result for Cc1ccccc1-c1ccc(C(=O)N2Cc3ccc(C(=O)NCc4ccncc4)n3Cc3ccccc32)cc1C too.
15

Please give the result for COc1cc(C(=O)N2Cc3ccc(C(=O)N(C)Cc4cccnc4)n3Cc3ccccc32)ccc1-c1ccccc1C too.
-10

Please give the result for Cc1ccccc1-c1ccc(C(=O)N2Cc3ccc(C(=O)NCc4ccccn4)n3Cc3ccccc32)cc1 too.
16

Please give the result for O=C(NCCc1ccccn1)c1ccc2n1Cc1ccccc1N(C(=O)c1ccc(-c3cccc4ccccc34)cc1Cl)C2 too.
15

Please give the result for COc1cc(-c2ccccc2C)c(Cl)cc1C(=O)N1Cc2ccc(C(=O)N3CCN(c4ccncc4)CC3)n2Cc2ccccc21 too.
17

---

system_name: human vasopressin V1a receptor subtype (Homo sapiens, UniProt P37288)
Construct: host or cells: CHO cells, stably transfected (pZeoSV vector for the Thibonnier line)
Sequence (P37288 whole entry): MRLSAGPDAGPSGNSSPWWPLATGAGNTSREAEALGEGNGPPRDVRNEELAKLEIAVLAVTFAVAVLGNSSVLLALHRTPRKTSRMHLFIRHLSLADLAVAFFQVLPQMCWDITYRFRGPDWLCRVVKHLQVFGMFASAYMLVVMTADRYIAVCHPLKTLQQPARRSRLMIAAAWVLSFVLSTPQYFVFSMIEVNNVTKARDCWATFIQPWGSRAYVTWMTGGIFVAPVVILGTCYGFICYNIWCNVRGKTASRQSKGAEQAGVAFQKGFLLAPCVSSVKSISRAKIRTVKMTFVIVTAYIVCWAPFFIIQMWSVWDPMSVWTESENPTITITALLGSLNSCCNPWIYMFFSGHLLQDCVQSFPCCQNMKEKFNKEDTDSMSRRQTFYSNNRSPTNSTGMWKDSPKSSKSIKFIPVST
method_summary: Vasopressin binding in CHO cell membranes expressing human vasopressin V1a subtype receptors ([3H]Manning ligand radioligand binding)
study_conditions: 100 nM
Method: Vasopressin Binding in Chinese Hamster Ovary Cell Membranes Expressing Human Vasopressin V1a Subtype Receptors The trypsin is removed by aspiration and the cells dislodged by tapping. Cell Culture medium (e.g. 30 mL for 1:30 split) is immediately added and mixed well to inactivate trypsin. […] Binding data is either reported as percent inhibition at a certain concentration or if an IC50 was calculated, as a nanomolar concentration.
For each of the molecules below, state its inhibition at 0.1 µM.
Hi, when you answer, please include the unit after the number. Thanks!

# get_value(readout='inhibition at 0.1 µM', item= COc1ccccc1-c1ccc(C(=O)N2Cc3ccc(C(=O)N4CCCCC4c4cccnc4)n3Cc3ccccc32)cc1OC (stereo not shown) [Example 141] )
9%

Please give the result for COc1cccc(-c2cc(OC)c(C(=O)N3Cc4ccc(C(=O)N(C)Cc5cccnc5)n4Cc4ccccc43)cc2Cl)c1 [Example 108] too.
4%

Please give the result for CN(CCc1ccccn1)C(=O)c1ccc2n1Cc1ccccc1N(C(=O)c1ccc(-c3cccc4ccccc34)cc1Cl)C2 [Example 73] too.
6%

Please give the result for COc1cccc(-c2ccc(C(=O)N3Cc4ccc(C(=O)N5CCN(c6ccccn6)CC5)n4Cc4ccccc43)cc2C)c1 [Example 77] too.
5%

---

system_name: human oxytocin receptor (Homo sapiens)
Construct: host or cells: CHO cells, stably transfected (pcDNA3.1 vector)
Sequence (P30559 1-389): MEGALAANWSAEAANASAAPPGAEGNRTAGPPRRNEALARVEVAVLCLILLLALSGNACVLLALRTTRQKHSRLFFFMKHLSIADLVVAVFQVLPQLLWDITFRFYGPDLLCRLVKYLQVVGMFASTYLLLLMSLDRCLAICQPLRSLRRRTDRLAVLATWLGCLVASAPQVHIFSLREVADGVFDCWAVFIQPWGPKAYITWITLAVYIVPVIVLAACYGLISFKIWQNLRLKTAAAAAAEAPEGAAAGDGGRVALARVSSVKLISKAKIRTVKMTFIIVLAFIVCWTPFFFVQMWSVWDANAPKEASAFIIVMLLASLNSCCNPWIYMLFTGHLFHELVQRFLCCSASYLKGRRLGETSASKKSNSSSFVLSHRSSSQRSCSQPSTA
method_summary: Oxytocin binding in CHO cell membranes expressing human oxytocin receptors ([3H]oxytocin radioligand binding)
study_conditions: 100 nM, read-out: OT % inhibition @ 100 nM
measurement_label: inhibition at 0.1 µM (%)
Please give a number only; it is taken to be in %.

# get_value(readout='inhibition at 0.1 µM', item= COc1cc(C(=O)N2Cc3ccc(C(=O)N(C)CCc4ccccn4)n3Cc3ccccc32)ccc1-n1c(C)ccc1C )
57

Please give the result for Cc1cc(C(=O)N2Cc3ccc(C(=O)N4CCN(c5ccccn5)CC4)n3Cc3ccccc32)ccc1-c1ccccc1C(F)(F)F too.
52

Please give the result for Cc1ccccc1-c1ccc(C(=O)N2Cc3ccc(C(=O)N4CCN(c5ccccn5)CC4)n3Cc3ccccc32)cc1 too.
49

Please give the result for Cc1cc(C(=O)N2Cc3ccc(C(=O)NCc4ccccn4)n3Cc3ccccc32)ccc1-c1ccccc1C(F)(F)F too.
27

Please give the result for COc1cc(C(=O)N2Cc3ccc(C(=O)N(C)CCc4ccncc4)n3Cc3ccccc32)ccc1-c1ccccc1C too.
99

Please give the result for Cc1cc(C(=O)N2Cc3ccc(C(=O)N(C)CCc4ccncc4)n3Cc3ccccc32)ccc1-c1ccccc1C(F)(F)F too.
95

Please give the result for COc1ccccc1-c1ccc(C(=O)N2Cc3ccc(C(=O)N(C)CCc4ccncc4)n3Cc3ccccc32)cc1C too.
93

Please give the result for CN(CCc1ccccn1)C(=O)c1ccc2n1Cc1ccccc1N(C(=O)c1ccc(-c3cccc4ccccc34)cc1Cl)C2 too.
32

Please give the result for COc1ccccc1-c1ccc(C(=O)N2Cc3ccc(C(=O)N4CCCCC4c4cccnc4)n3Cc3ccccc32)cc1 (centres unmarked) too.
96

Please give the result for COc1ccccc1-c1ccc(C(=O)N2Cc3ccc(C(=O)NCc4cccnc4)n3Cc3ccccc32)cc1C too.
46

Please give the result for COc1cc(C(=O)N2Cc3ccc(C(=O)NCc4ccccn4)n3Cc3ccccc32)ccc1-c1cccc2ccccc12 too.
18

Please give the result for COc1cccc(-c2cc(OC)c(C(=O)N3Cc4ccc(C(=O)N(C)CCc5ccncc5)n4Cc4ccccc43)cc2Cl)c1 too.
87

Please give the result for Cc1ccccc1-c1ccc(C(=O)N2Cc3ccc(C(=O)N(C)CCc4ccncc4)n3Cc3ccccc32)cc1C too.
102

Please give the result for O=C(NCc1ccncc1)c1ccc2n1Cc1ccccc1N(C(=O)c1ccc(-c3cccc4ccccc34)cc1Cl)C2 too.
13

---

system_name: human oxytocin receptor (Homo sapiens)
Construct: host or cells: CHO cells, stably transfected (pcDNA3.1 vector)
method_summary: Oxytocin binding in CHO cell membranes expressing human oxytocin receptors ([3H]oxytocin radioligand binding)
study_conditions: 100 nM, read-out: OT % inhibition @ 100 nM
For each of the compounds below, state its inhibition at 0.1 µM.
Hi, when you answer, please include the unit after the number. Thanks!

# get_value(readout='inhibition at 0.1 µM', item= COc1ccccc1-c1ccc(C(=O)N2Cc3ccc(C(=O)NCc4ccncc4)n3Cc3ccccc32)cc1 )
44%

Please give the result for Cc1ccccc1-c1ccc(C(=O)N2Cc3ccc(C(=O)NCCc4ccccn4)n3Cc3ccccc32)cc1 too.
6%

Please give the result for CN(CCc1ccncc1)C(=O)c1ccc2n1Cc1ccccc1N(C(=O)c1ccc(-c3cccc4ccccc34)cc1Cl)C2 too.
44%

Please give the result for COc1ccccc1-c1ccc(C(=O)N2Cc3ccc(C(=O)NCc4ccccn4)n3Cc3ccccc32)cc1C too.
50%

Please give the result for COc1ccccc1-c1ccc(C(=O)N2Cc3ccc(C(=O)NCc4ccccn4)n3Cc3ccccc32)cc1 too.
47%

Please give the result for Cc1cc(C(=O)N2Cc3ccc(C(=O)N(C)CCc4ccccn4)n3Cc3ccccc32)ccc1-c1ccccc1C(F)(F)F too.
91%

Please give the result for COc1ccccc1-c1ccc(C(=O)N2Cc3ccc(C(=O)NCc4ccncc4)n3Cc3ccccc32)cc1OC too.
36%

Please give the result for COc1cccc(-c2ccc(C(=O)N3Cc4ccc(C(=O)NCc5ccccn5)n4Cc4ccccc43)cc2OC)c1 too.
42%

Please give the result for COc1cccc(-c2ccc(C(=O)N3Cc4ccc(C(=O)N5CCN(c6ccccn6)CC5)n4Cc4ccccc43)cc2C)c1 too.
21%

Please give the result for COc1cccc(-c2ccc(C(=O)N3Cc4ccc(C(=O)NCc5cccnc5)n4Cc4ccccc43)cc2OC)c1 too.
31%

Please give the result for COc1ccccc1-c1ccc(C(=O)N2Cc3ccc(C(=O)N4CCN(c5ccccn5)CC4)n3Cc3ccccc32)cc1 too.
59%

Please give the result for COc1cccc(-c2cc(OC)c(C(=O)N3Cc4ccc(C(=O)N5CCN(c6ccncc6)CC5)n4Cc4ccccc43)cc2Cl)c1 too.
67%

Please give the result for COc1cccc(-c2cc(OC)c(C(=O)N3Cc4ccc(C(=O)NCc5ccccn5)n4Cc4ccccc43)cc2Cl)c1 too.
25%

Please give the result for COc1cc(-c2ccccc2C)c(Cl)cc1C(=O)N1Cc2ccc(C(=O)NCc3ccccn3)n2Cc2ccccc21 too.
42%

Please give the result for Cc1ccccc1-c1ccc(C(=O)N2Cc3ccc(C(=O)N(C)CCc4ccncc4)n3Cc3ccccc32)cc1 too.
0%

Please give the result for COc1cccc(-c2ccc(C(=O)N3Cc4ccc(C(=O)N(C)CCc5ccccn5)n4Cc4ccccc43)cc2OC)c1 too.
89%

Please give the result for COc1ccccc1-c1ccc(C(=O)N2Cc3ccc(C(=O)N(C)CCc4ccccn4)n3Cc3ccccc32)cc1OC too.
91%

Please give the result for COc1cccc(-c2cc(OC)c(C(=O)N3Cc4ccc(C(=O)NCc5ccncc5)n4Cc4ccccc43)cc2Cl)c1 too.
7%

Please give the result for Cc1cc(C(=O)N2Cc3ccc(C(=O)NCc4ccncc4)n3Cc3ccccc32)ccc1-c1ccccc1C(F)(F)F too.
24%

Please give the result for COc1ccccc1-c1ccc(C(=O)N2Cc3ccc(C(=O)N4CCN(c5ccccn5)CC4)n3Cc3ccccc32)cc1C too.
62%

Please give the result for COc1ccccc1-c1ccc(C(=O)N2Cc3ccc(C(=O)NCCc4ccccn4)n3Cc3ccccc32)cc1OC too.
37%

Please give the result for COc1ccccc1-c1ccc(C(=O)N2Cc3ccc(C(=O)NCc4ccncc4)n3Cc3ccccc32)cc1C too.
44%

Please give the result for COc1cc(-c2ccccc2C)c(Cl)cc1C(=O)N1Cc2ccc(C(=O)N(C)Cc3cccnc3)n2Cc2ccccc21 too.
92%

Please give the result for O=C(NCc1ccccn1)c1ccc2n1Cc1ccccc1N(C(=O)c1ccc(-c3cccc4ccccc34)cc1Cl)C2 too.
5%

Please give the result for COc1cc(C(=O)N2Cc3ccc(C(=O)N(C)CCc4ccncc4)n3Cc3ccccc32)ccc1-n1c(C)ccc1C too.
64%

Please give the result for COc1cc(-c2ccccc2C)c(Cl)cc1C(=O)N1Cc2ccc(C(=O)N3CCCCC3c3cccnc3)n2Cc2ccccc21 (centres unmarked) too.
95%

Please give the result for COc1cc(-c2ccccc2C)c(Cl)cc1C(=O)N1Cc2ccc(C(=O)N(C)CCc3ccncc3)n2Cc2ccccc21 too.
99%

Please give the result for COc1ccccc1-c1ccc(C(=O)N2Cc3ccc(C(=O)NCc4cccnc4)n3Cc3ccccc32)cc1 too.
35%

Please give the result for COc1ccccc1-c1ccc(C(=O)N2Cc3ccc(C(=O)NCc4ccccn4)n3Cc3ccccc32)cc1OC too.
47%

// data source = patent US7064120B2
